Molecular target: Aspartate--tRNA(Asp/Asn) ligase (Mycobacterium tuberculosis (strain ATCC 25618 / H37Rv)); further: in the data most compounds retested in dose-response had high values
Test: Assay for Asp RNA synthetase-1 from Mycobacterium tuberculosis
Assay type: functional
Design: scale not given: direction of the effect not stated beside the values
Settings: 30 µM
Here the recorded Percent Effect is given for each entry.

| MOLECULE | UNIT TAG | Percent Effect |
| --- | --- | --- |
| COC(=O)C(C)(C)NC(=O)C1CC(=O)N(C)C1 (configuration not stated) | % | -1.62 |
| Cn1ncc2c1NC(=O)CC2c1ccccc1Cl (configuration not stated) | % | 1.14 |
| O=C(O)CC1CN(Cc2ccccc2)CCO1 (configuration not stated) | % | -0.183 |
| COc1ccccc1C1CNC(=O)c2nc(-c3ncc[nH]3)[nH]c2C1 (configuration not stated) | % | 2.38 |
| CNC(=O)CN1CCOCC2(CCCN(Cc3cccnc3)C2)C1 (configuration not stated) | % | 2.13 |
| Cn1cc(N2CCCC(NCc3cccc4c3OCCCO4)C2)cn1 (configuration not stated) | % | 2.49 |
| O=C(NCCn1ccc(-c2ccccn2)n1)c1ccncc1 | % | -6.73 |
| COc1c(C2CCCN2Cc2c(C)noc2C)c(C)nn1C (configuration not stated) | % | 1.48 |
| Cc1ccccc1CN1CCC2(COCc3cnc(N(C)C)nc32)C1 (configuration not stated) | % | -3.4 |
| CC(=O)N1CCCN(C(=O)c2ccn(-c3cccc(Cl)c3)n2)CC1 | % | 3 |
| CCc1noc(C2CCCCN2C(=O)c2ccoc2C)n1 (configuration not stated) | % | -4.38 |
| CC(=O)N1CCCC1c1cccc(Cc2ccc(F)cc2)n1 (configuration not stated) | % | -5.96 |

----------
Molecular target: Shiga toxin 2 (Escherichia coli O157:H7) (UniProt P09385+P09386)
Test: E. coli 0.157:H7 Shiga Toxin SOP - stx2 screening assay
Format: functional
Parameters: scale not given: direction of the effect not stated beside the values
Conditions: 30 µM
EXPERIMENTAL READOUT: Percent Effect (%)

| MOLECULE | VALUE MEASURED |
| --- | --- |
| Cc1ccsc1C(=O)NCCCn1nc2ccccn2c1=O | 16.8 |
| CCc1cnc(N)nc1NCCN1CCCCC1 | -30.3 |
| CCCC(=O)Nc1sc(C(=O)OCC)c(C)c1C#N | 7.46 |
| Cn1nc2c(cc1=O)CN(Cc1nnc(-c3ccc(F)cc3)o1)CC2 | -108 |
| Cc1ccc(CS(=O)(=O)N2CC[C@H]3[C@H]2CCN3C)cc1 | -4.23 |
| O=C(Cc1ccccn1)N1CCN(CC2CC2)c2ncccc2C1 | -12.7 |
| CC(C(=O)NCc1ccnc(N(C)C)c1)n1cncn1 (centres undefined) | -9.74 |
| CN(CC1COc2ccccc2O1)C(=O)NCCCn1ccnc1 (centres undefined) | 11.4 |
| O=C(C1=CCCC1)N1C[C@@H]2COC[C@]2(COc2cccnc2)C1 | 1.76 |
| Cc1nn2cccnc2c1C(=O)N1CCCC(Nc2ccccc2)C1 (centres undefined) | 8.26 |
| Cc1csc(Nc2nccnc2C2CCCN2C(=O)C(C)C)n1 (centres undefined) | 13.1 |
| CCOCCn1nc(C)cc1C(=O)N1CCOCC(CO)C1 (centres undefined) | -28 |
| O=C(NCCc1cccnc1)N1CCCC1c1ccsc1 (centres undefined) | 1.93 |
| CCc1nccn1C1CCCN(C(=O)CCCNc2ncccn2)C1 (centres undefined) | 8.61 |
| Cn1ccc(C(=O)NC2CCC23CCN(C(=O)c2ccncc2)CC3)c1 (centres undefined) | -10.5 |
| Cc1cc(C)c(CNC(=O)C2CCCN(c3cnccn3)C2)c(=O)[nH]1 (centres undefined) | 30.7 |
| COCC(=O)N1CCC2(CC1)CCN(Cc1ccccn1)C2=O | 7.27 |
| CC1=N[C@@]2(CC[C@@H]3CN(S(=O)(=O)CC(C)C)C[C@@H]32)C(=O)N1CC(C)C | 9.05 |
| Cc1csc(N2CCN(C(=O)CCc3ccccn3)CC2)n1 | 20.4 |
| CN(C)S(=O)(=O)N1CCCC(c2cccc(Cc3ccccc3)n2)C1 (centres undefined) | 67.3 |
| CN1CCc2cc(C(CNS(=O)(=O)c3cccs3)N3CCCC3)ccc21 (centres undefined) | -6.23 |
| COCCN1CCC(NC(=O)C2(c3cc(C)cc(C)c3)CC2)CC1 | 22.9 |
| CN(Cc1ccco1)C(=O)[C@H]1CSCN1C(=O)OC(C)(C)C | 10.2 |
| O=C1CCC2(CCCN(CCc3ccccc3)C2)N1Cc1cccnc1 (centres undefined) | -5.68 |

Reference source for all entries: ChEMBL document CHEMBL3988442
